- test system: PI3-kinase p110-alpha/p85-alpha (Homo sapiens, UniProt P42336)
- Sequence (P27986 whole entry): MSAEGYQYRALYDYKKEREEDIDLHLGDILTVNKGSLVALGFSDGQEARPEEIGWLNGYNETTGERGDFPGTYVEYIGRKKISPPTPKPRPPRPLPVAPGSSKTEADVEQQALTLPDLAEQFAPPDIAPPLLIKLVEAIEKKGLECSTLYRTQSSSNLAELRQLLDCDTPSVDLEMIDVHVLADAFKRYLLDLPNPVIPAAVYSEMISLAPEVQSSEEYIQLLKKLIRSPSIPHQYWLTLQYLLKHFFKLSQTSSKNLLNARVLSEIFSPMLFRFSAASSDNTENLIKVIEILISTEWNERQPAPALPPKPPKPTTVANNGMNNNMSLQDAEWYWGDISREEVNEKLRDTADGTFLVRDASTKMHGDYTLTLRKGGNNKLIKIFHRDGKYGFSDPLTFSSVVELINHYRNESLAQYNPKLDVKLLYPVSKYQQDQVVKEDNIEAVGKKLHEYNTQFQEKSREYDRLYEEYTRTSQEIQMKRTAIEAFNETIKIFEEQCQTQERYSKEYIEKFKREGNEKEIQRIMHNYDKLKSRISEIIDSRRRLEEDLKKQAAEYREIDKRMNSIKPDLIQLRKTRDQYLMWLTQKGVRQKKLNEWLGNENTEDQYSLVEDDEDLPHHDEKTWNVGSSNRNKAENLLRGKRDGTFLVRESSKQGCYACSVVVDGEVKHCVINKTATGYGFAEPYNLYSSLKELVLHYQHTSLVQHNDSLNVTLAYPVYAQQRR
- Sequence (P42336 whole entry): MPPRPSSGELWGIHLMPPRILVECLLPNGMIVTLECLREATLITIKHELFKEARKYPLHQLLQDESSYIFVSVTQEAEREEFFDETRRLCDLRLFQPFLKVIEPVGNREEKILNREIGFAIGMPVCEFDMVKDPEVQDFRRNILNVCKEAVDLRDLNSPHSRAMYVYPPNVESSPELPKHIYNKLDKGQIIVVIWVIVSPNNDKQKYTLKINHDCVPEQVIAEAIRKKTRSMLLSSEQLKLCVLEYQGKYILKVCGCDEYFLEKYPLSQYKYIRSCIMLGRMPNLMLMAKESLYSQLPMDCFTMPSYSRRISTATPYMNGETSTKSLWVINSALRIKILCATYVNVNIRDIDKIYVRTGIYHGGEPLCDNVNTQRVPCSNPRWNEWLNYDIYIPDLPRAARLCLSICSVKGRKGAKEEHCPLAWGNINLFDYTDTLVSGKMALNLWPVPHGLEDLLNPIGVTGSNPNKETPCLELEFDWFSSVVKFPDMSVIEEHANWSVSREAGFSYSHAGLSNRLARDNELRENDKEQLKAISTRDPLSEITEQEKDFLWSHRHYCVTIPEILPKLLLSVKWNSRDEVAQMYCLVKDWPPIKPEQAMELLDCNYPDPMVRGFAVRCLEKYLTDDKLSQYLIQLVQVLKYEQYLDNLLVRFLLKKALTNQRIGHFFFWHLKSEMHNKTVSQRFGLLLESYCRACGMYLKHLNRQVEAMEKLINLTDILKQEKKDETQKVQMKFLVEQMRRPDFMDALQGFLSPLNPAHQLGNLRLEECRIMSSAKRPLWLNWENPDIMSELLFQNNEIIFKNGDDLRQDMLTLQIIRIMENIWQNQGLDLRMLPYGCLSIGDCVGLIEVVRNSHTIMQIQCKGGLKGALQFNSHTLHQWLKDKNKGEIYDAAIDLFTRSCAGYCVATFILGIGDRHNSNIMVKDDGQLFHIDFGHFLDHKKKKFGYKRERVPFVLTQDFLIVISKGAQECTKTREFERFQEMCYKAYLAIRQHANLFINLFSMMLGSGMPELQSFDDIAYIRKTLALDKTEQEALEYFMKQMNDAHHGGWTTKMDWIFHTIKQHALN
- method: Inhibition of human PI3K p110 alpha/p85 alpha using phosphatidylinositol-4, 5-bisphosphate as substrate incubated for 30 mins in the presence of Mg/ATP mix by HTRF-based analysis
pIC50: −log10 of the molar value.
readout label: pIC50

Reported pIC50 for C[C@H](c1ccccc1)n1nnc2cnc3ccc(-c4ccc(OCCCN(C)C)nc4)cc3c21 : what is it? < 5.00
